Measured IC50 by item
# Measured Target: FGFR2 (Homo sapiens (Human))
# Sequence (P21802 22-821): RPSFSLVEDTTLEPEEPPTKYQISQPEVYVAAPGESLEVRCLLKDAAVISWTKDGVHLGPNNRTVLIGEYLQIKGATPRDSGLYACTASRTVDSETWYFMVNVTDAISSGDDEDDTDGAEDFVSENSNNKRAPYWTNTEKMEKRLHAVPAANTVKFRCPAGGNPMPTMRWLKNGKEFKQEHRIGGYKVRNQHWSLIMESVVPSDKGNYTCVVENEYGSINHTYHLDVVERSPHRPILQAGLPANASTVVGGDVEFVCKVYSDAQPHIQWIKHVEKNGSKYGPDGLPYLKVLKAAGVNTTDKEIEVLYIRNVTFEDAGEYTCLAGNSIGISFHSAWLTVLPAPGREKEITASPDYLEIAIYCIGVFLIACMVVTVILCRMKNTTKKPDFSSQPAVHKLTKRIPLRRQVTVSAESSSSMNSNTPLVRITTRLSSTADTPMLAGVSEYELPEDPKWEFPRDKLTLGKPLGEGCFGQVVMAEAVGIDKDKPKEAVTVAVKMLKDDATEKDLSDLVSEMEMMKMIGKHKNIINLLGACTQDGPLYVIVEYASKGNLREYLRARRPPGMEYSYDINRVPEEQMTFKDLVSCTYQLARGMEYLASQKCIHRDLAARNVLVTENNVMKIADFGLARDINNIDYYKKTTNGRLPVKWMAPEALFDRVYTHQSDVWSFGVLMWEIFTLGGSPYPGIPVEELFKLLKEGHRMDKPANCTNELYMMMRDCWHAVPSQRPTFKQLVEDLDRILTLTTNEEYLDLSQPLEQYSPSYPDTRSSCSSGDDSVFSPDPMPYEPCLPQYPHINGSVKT
# Experiment: FGFR Enzymatic Assay (FRET peptide phosphorylation), FGFR2
# Assay type: biochemical
# Test Conditions: pre-incubated for 4 hours

Worked set:
Lookup: If you can, please state the reported IC50 value of COc1cc(OC)c(F)c(N2Cc3cnc(-c4cn(C)nc4C)cc3N(Cc3ccncn3)C2=O)c1F .
Found: < 10 nM

Lookup: If you can, please state the reported IC50 value of COc1cc(OC)c(F)c(N2Cc3cnc(-c4cnn(CCN5CCC(OC)CC5)c4)cc3C3(CC3)C2=O)c1F .
Found: < 10 nM

Lookup: If you can, please state the reported IC50 value of COc1cc(OC)c(F)c(N2Cc3cnc(-c4cn(C)nc4C)cc3N(c3ccc(C#N)cc3)C2=O)c1F .
Found: 10 to 30 nM

Lookup: If you can, please state the reported IC50 value of COc1cc(OC)c(F)c(N2Cc3cnc(-c4cnn(CCN5CCC(OC)C5)c4)cc3C3(CC3)C2=O)c1F (stereo not drawn) .
Found: < 10 nM

Lookup: If you can, please state the reported IC50 value of COc1cc(OC)c(F)c(N2Cc3cnc(-c4cn(C)nc4C)cc3N(Cc3cnccn3)C2=O)c1F .
Found: 10 to 30 nM

Lookup: If you can, please state the reported IC50 value of COc1cc(OC)c(F)c(N2Cc3cnc(-c4cn(CCN5CCOCC5)nc4C)cc3C3(CC3)C2=O)c1F .
Found: 10 to 30 nM

Lookup: If you can, please state the reported IC50 value of COc1cc(OC)c(F)c(N2Cc3cnc(-c4cnn(C5(CC#N)CN(C(C)=O)C5)c4)cc3C3(CC3)C2=O)c1F .
Found: 30 to 200 nM

Lookup: If you can, please state the reported IC50 value of COc1cc(OC)c(F)c(N2Cc3cnc(-c4cn(C)nc4C)cc3N(c3cccc(-c4cnnn4C)c3)C2=O)c1F .
Found: < 10 nM

Lookup: If you can, please state the reported IC50 value of COc1cc(OC)c(F)c(N2Cc3cnc(-c4cn(C)nc4C)cc3N(c3ccccc3F)C2=O)c1F .
Found: < 10 nM

Lookup: If you can, please state the reported IC50 value of COc1cc(OC)c(F)c(N2Cc3cnc(-c4cn(C)nc4C)cc3N(C3CCCC3)C2=O)c1F .
Found: < 10 nM

Next:
Lookup: If you can, please state the reported IC50 value of COc1cc(OC)c(F)c(N2Cc3cnc(-c4cc(N)ccc4C)cc3C3(CC3)C2=O)c1F .
Found: > 200 nM

Lookup: If you can, please state the reported IC50 value of CCN1C(=O)N(c2c(F)c(OC)cc(OC)c2F)Cc2cnc(-c3ccc(C(=O)NC(C)C)nc3)cc21 .
Found: < 10 nM

Lookup: If you can, please state the reported IC50 value of COc1cc(OC)c(F)c(N2Cc3cnc(-c4ccccc4)cc3C3(CC3)C2=O)c1F .
Found: 30 to 200 nM

Lookup: If you can, please state the reported IC50 value of CCN1C(=O)N(c2c(F)c(OC)cc(OC)c2F)Cc2cnc(-c3ccc(CN4CC[C@H](C#N)C4)cc3)cc21 .
Found: < 10 nM

Lookup: If you can, please state the reported IC50 value of CNC(=O)c1ccc(CN2C(=O)N(c3c(F)c(OC)cc(OC)c3F)Cc3cnc(-c4cn(C)nc4C)cc32)cc1 .
Found: 10 to 30 nM
